method summary: Plasma PK, Part A single oral doses in healthy participants
Format: in vivo, human
test context: human, plasma, oral, 400 mg, single dose 400 mg (8 × 50 mg), fasted; read-out: Vz/F, geometric mean (CV%)
property label: Vd/F
The reply must contain the numeric value and, after it, the unit.

### Prompt Param item = OC[C@H]1O[C@H](Sc2cncc(Br)c2)[C@H](O)[C@@H](n2cc(-c3cc(F)c(F)c(F)c3)nn2)[C@H]1O ; retrieve measured Vd/F.
### Response 398 L

----------
method summary: Plasma PK, Part A single oral doses in healthy participants
Assay type: in vivo, human
test context: human, plasma, oral, 50 mg, single dose 50 mg (1 × 50 mg), fed; read-out: t½, arithmetic mean (SD) (converted)
property label: half-life (min)
Numeric answer only, unit min assumed.

### Prompt Please give the measured half-life for this compound: OC[C@H]1O[C@H](Sc2cncc(Br)c2)[C@H](O)[C@@H](n2cc(-c3cc(F)c(F)c(F)c3)nn2)[C@H]1O [GB1211]
### Response 774

----------
method summary: Plasma PK, Part A single oral doses in healthy participants
Format: in vivo, human
test context: human, plasma, oral, 400 mg, single dose 400 mg (8 × 50 mg), fasted; read-out: Tmax, median (min–max)
property label: Tmax (h)
Hi! Could you send only the number? It should be in h, unit omitted.

### Prompt State the recorded Tmax for this entry: OC[C@H]1O[C@H](Sc2cncc(Br)c2)[C@H](O)[C@@H](n2cc(-c3cc(F)c(F)c(F)c3)nn2)[C@H]1O
### Response 4

----------
method summary: Plasma PK, Part B multiple oral BID doses in healthy participants
Assay type: in vivo, human
test context: human, plasma, oral; 50 mg BID, fasted, Day 10; read-out: Vz/F, geometric mean (CV%)
property label: Vd/F (L)
Write the value in L as a bare number.

### Prompt Using the record for OC[C@H]1O[C@H](Sc2cncc(Br)c2)[C@H](O)[C@@H](n2cc(-c3cc(F)c(F)c(F)c3)nn2)[C@H]1O , report its Vd/F.
### Response 311

----------
method summary: Plasma PK, Part A single oral doses in healthy participants
Assay type: in vivo, human
test context: human, plasma, oral, 50 mg, Fed; read-out: AUC0–tlast, geometric LS means
property label: AUC(0-t) (ng·h/mL)
Kindly answer with a numeric value in ng·h/mL, unit omitted.

### Prompt I'd like to know its AUC(0-t). The compound in question is OC[C@H]1O[C@H](Sc2cncc(Br)c2)[C@H](O)[C@@H](n2cc(-c3cc(F)c(F)c(F)c3)nn2)[C@H]1O
### Response 4930

----------
method summary: Plasma PK, Part A single oral doses in healthy participants
Format: in vivo, human
test context: human, plasma, oral, 20 mg, single dose 20 mg (4 × 5 mg), fasted; read-out: Vz/F, geometric mean (CV%)
property label: Vd/F (L)
// units = L; emit number, no label

### Prompt Need Vd/F, item OC[C@H]1O[C@H](Sc2cncc(Br)c2)[C@H](O)[C@@H](n2cc(-c3cc(F)c(F)c(F)c3)nn2)[C@H]1O
### Response 104

----------
method summary: Plasma PK, Part A single oral doses in healthy participants
Assay type: in vivo, human
test context: human, plasma, oral, 50 mg, single dose 50 mg (1 × 50 mg), fasted; read-out: t½, arithmetic mean (SD) (converted)
property label: half-life (min)
Please reply with the bare figure in min and do not write the unit itself.

### Prompt I am curious: what half-life value has been reported for OC[C@H]1O[C@H](Sc2cncc(Br)c2)[C@H](O)[C@@H](n2cc(-c3cc(F)c(F)c(F)c3)nn2)[C@H]1O ?
### Response 762

----------
method summary: Urine PK, Part A single oral doses in healthy participants
Format: in vivo, human
test context: human, urine, oral, 20 mg, single dose 20 mg (4 × 5 mg), fasted; read-out: CLR, geometric mean (CV%) (converted)
Excerpt: A further two cohorts were recruited. […] Each individual participated in one treatment period only, with the exception of the food-effect cohort (cohort A3) in which there were two treatment periods separated by at least 7 days washout. Participants resided at the Clinical Research Unit (CRU) from 1 day ahead of dosing (day − 1) to day 3 and returned for a follow-up visit 5–7 days after their final dose. […]
property label: CL renal (mL/min)
Give just the number in mL/min; leave the unit off.

### Prompt Look at this compound and give its reported CL renal. OC[C@H]1O[C@H](Sc2cncc(Br)c2)[C@H](O)[C@@H](n2cc(-c3cc(F)c(F)c(F)c3)nn2)[C@H]1O
### Response 31.7

----------
method summary: Plasma PK, Part A single oral doses in healthy participants
Type: in vivo, human
test context: human, plasma, oral, 5 mg, single dose 5 mg (1 × 5 mg), fasted; read-out: Tmax, median (min–max)
property label: Tmax (h)
Give a bare numeral; the unit h is implied.

### Prompt What value of Tmax has been recorded for this entry: OC[C@H]1O[C@H](Sc2cncc(Br)c2)[C@H](O)[C@@H](n2cc(-c3cc(F)c(F)c(F)c3)nn2)[C@H]1O
### Response 2

----------
method summary: Plasma PK, Part B multiple oral BID doses in healthy participants
Type: in vivo, human
test context: human, plasma, oral, 100 mg, 100 mg BID, fasted, Day 10; read-out: AUC0-τ, geometric mean (CV%)
property label: AUC (ng·h/mL)
Write it as a number; the unit ng·h/mL goes unstated.

### Prompt I am curious: what AUC value has been reported for OC[C@H]1O[C@H](Sc2cncc(Br)c2)[C@H](O)[C@@H](n2cc(-c3cc(F)c(F)c(F)c3)nn2)[C@H]1O ?
### Response 7530

----------
method summary: Plasma PK, Part A single oral doses in healthy participants
Assay type: in vivo, human
test context: human, plasma, oral, 100 mg, single dose 100 mg (2 × 50 mg), fasted; read-out: Cmax, geometric mean (CV%)
property label: Cmax

### Prompt Which value of Cmax has been reported for OC[C@H]1O[C@H](Sc2cncc(Br)c2)[C@H](O)[C@@H](n2cc(-c3cc(F)c(F)c(F)c3)nn2)[C@H]1O in the records?
### Response 525 ng/mL

----------
method summary: Urine PK, Part A single oral doses in healthy participants
Type: in vivo, human
test context: human, urine, oral, 50 mg, single dose 50 mg (10 × 5 mg), fasted; read-out: CLR, geometric mean (CV%) (converted)
property label: CL renal (mL/min)
Give just the numeric value; mL/min need not be written.

### Prompt Consider the compound OC[C@H]1O[C@H](Sc2cncc(Br)c2)[C@H](O)[C@@H](n2cc(-c3cc(F)c(F)c(F)c3)nn2)[C@H]1O [GB1211] and give its measured CL renal.
### Response 32.3

----------
method summary: Plasma PK, Part A single oral doses in healthy participants
Assay type: in vivo, human
test context: human, plasma, oral, 5 mg, single dose 5 mg (1 × 5 mg), fasted; read-out: AUC0–∞, geometric mean (CV%)
Procedure: A further two cohorts were recruited. […] Each individual participated in one treatment period only, with the exception of the food-effect cohort (cohort A3) in which there were two treatment periods separated by at least 7 days washout. […] Dose proportionality was analyzed for exposure parameters after fasted doses. The power model was used on AUC0–∞, AUC0–tlast, and Cmax on day 1 in Part A. Data were analyzed over two dose ranges: 50–400 mg (50 mg capsules) and 5–50 mg (5 mg capsules). […]
property label: AUC(0-inf) (ng·h/mL)
I only need the number, in ng·h/mL, no unit after it.

### Prompt Consider the molecule OC[C@H]1O[C@H](Sc2cncc(Br)c2)[C@H](O)[C@@H](n2cc(-c3cc(F)c(F)c(F)c3)nn2)[C@H]1O and give its measured AUC(0-inf).
### Response 712

----------
method summary: Plasma PK, Part B multiple oral BID doses in healthy participants
Type: in vivo, human
test context: human, plasma, oral, 50 mg, 50 mg BID, fasted, Day 10; read-out: AUC0-τ, geometric mean (CV%)
property label: AUC (ng·h/mL)
Give just the number in ng·h/mL; leave the unit off.

### Prompt Entry OC[C@H]1O[C@H](Sc2cncc(Br)c2)[C@H](O)[C@@H](n2cc(-c3cc(F)c(F)c(F)c3)nn2)[C@H]1O [GB1211] has what AUC?
### Response 5130

----------
method summary: Plasma PK, Part B multiple oral BID doses in healthy participants
Format: in vivo, human
test context: human, plasma, oral, 50 mg, 50 mg BID, fasted, Day 10; read-out: t½, arithmetic mean (SD) (converted)
Description: Following review of safety, tolerability, and PK data from cohorts A1–A6, participants received twice-daily doses (BID) under fasted conditions on days 1–9 and a final single dose in the morning of day 10. […] Dose proportionality was analyzed for exposure parameters after fasted doses. The power model was used on AUC0–∞, AUC0–tlast, and Cmax on day 1 in Part A. Data were analyzed over two dose ranges: 50–400 mg (50 mg capsules) and 5–50 mg (5 mg capsules). […]
property label: half-life

### Prompt half-life for OC[C@H]1O[C@H](Sc2cncc(Br)c2)[C@H](O)[C@@H](n2cc(-c3cc(F)c(F)c(F)c3)nn2)[C@H]1O [GB1211] ?
### Response ~21.4 h
